- Target System: UniProt P00519
- Sequence (P00519 whole entry): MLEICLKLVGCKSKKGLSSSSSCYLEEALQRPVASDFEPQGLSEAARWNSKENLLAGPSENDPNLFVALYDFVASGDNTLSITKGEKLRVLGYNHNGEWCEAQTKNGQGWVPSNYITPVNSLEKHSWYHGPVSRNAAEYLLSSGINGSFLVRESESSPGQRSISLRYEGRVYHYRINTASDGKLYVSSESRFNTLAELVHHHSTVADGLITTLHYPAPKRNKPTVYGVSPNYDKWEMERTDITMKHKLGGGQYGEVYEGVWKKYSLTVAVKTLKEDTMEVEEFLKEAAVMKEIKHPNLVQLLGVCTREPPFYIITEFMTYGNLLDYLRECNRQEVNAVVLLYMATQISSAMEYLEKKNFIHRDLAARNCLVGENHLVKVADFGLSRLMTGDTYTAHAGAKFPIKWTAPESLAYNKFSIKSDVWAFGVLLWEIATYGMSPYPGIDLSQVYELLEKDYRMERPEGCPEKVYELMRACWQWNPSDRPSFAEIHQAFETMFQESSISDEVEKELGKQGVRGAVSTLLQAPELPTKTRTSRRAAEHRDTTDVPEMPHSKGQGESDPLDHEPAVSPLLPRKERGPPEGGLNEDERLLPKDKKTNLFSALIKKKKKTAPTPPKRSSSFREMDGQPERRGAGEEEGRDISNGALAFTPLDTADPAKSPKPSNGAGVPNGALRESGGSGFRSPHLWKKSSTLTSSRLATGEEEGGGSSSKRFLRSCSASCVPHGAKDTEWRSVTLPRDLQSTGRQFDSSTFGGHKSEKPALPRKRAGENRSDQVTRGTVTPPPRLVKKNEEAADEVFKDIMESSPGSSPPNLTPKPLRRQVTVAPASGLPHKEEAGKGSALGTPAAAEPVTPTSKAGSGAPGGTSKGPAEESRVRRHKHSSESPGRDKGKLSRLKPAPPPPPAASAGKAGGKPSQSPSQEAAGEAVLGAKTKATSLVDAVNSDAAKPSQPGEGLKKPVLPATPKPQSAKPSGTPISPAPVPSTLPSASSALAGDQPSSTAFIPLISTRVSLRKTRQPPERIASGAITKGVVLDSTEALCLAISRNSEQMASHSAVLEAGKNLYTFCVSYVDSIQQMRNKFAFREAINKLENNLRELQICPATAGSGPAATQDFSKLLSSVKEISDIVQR
pIC50: −log10 of the molar value.

{"columns": ["Item Smiles", "pIC50"],
 "data": [
  ["NC1=NC(=O)/C(=C2\\CCNC(=O)c3[nH]c(Br)cc32)N1", 5.40]
]}

---

- Target System: Casein kinase I
- Measurement Description: Inhibition of CK1 (unknown origin)
- Format: protein assay, Homo sapiens
The entries below are paired with their reported IC50.
Endpoint Name: IC50 (µM)

{"columns": ["Molecule", "Target System", "Endpoint Name", "Modifier Sign", "Observed Value"],
 "data": [
  ["O=C1Cc2c([nH]c3ccncc23)-c2ccccc2N1", "Casein kinase I", "IC50", ">", 10],
  ["O=C1NC(=O)/C(=C2\\CCNC(=O)c3[nH]c(Br)cc32)N1 [SPONGIACIDIN D]", "Casein kinase I", "IC50", "=", 4.5],
  ["O=C1Cc2c([nH]c3cc[n+]([O-])cc23)-c2ccccc2N1", "Casein kinase I", "IC50", ">", 10],
  ["O=C1Cc2c([nH]c3cc[n+](Cc4ccccc4)cc23)-c2ccccc2N1.[Br-]", "Casein kinase I", "IC50", ">", 10],
  ["NC1=NC(=O)/C(=C2\\CCNC(=O)c3[nH]c(Br)cc32)N1 [HYMENIALDISINE]", "Casein kinase I", "IC50", "=", 0.035]
]}

---

- Target System: Dual specificity tyrosine-phosphorylation-regulated kinase 1A (Homo sapiens, UniProt Q13627)
pIC50: −log10 of the molar value.

{"columns": ["Item Smiles", "pIC50"],
 "data": [
  ["O=C1Cc2c([nH]c3cc[n+]([O-])cc23)-c2ccccc2N1", "< 5.00"],
  ["O=C1Cc2c([nH]c3cc[n+](Cc4ccccc4)cc23)-c2ccccc2N1.[Br-]", "< 5.00"]
]}

---

- Target System: Cyclin-dependent kinase 4/cyclin D1 (Homo sapiens, UniProt P11802)
- Sequence (P11802 whole entry): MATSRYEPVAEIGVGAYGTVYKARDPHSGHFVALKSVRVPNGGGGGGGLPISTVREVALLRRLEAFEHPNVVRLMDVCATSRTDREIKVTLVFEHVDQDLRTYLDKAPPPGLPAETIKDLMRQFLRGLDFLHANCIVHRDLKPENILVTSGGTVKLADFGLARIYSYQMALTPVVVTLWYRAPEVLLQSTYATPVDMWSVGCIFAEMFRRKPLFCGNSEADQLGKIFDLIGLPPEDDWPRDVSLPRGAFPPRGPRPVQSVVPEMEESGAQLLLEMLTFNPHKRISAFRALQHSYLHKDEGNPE
- Sequence (P24385 whole entry, further chain): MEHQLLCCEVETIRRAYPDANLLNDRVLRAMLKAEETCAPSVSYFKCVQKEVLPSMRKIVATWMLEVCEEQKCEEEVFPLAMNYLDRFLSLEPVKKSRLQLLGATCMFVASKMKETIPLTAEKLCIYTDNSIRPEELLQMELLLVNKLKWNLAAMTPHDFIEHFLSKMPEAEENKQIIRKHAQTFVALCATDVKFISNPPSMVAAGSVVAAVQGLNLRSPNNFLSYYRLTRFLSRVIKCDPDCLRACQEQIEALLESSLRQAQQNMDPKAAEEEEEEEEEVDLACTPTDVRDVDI
- Measurement Description: Inhibition of CDK4/Cyclin D1 (unknown origin)
pIC50: −log10 of the molar value.
The entries below are paired with their reported pIC50.

{"columns": ["Item Smiles", "pIC50"],
 "data": [
  ["O=C1Cc2c([nH]c3ccc(Br)cc23)-c2ccccc2N1", "< 4.00"],
  ["NC1=NC(=O)/C(=C2\\CCNC(=O)c3[nH]c(Br)cc32)N1", 6.22],
  ["O=C1Cc2c([nH]c3ccc([N+](=O)[O-])cc23)-c2ccccc2N1", "< 5.00"]
]}

---

- Target System: CDK6/cyclin D2 (Homo sapiens, UniProt P30279+Q00534)
- Sequence (Q00534 whole entry): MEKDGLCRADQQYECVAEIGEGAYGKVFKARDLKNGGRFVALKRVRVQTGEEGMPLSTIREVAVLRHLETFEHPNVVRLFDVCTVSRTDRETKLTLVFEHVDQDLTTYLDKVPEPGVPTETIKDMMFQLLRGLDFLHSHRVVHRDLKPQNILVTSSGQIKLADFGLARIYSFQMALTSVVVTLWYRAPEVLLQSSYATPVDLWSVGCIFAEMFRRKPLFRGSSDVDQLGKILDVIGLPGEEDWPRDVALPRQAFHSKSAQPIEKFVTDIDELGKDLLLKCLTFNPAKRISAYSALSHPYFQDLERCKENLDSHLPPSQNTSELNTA
- Sequence (P30279 whole entry): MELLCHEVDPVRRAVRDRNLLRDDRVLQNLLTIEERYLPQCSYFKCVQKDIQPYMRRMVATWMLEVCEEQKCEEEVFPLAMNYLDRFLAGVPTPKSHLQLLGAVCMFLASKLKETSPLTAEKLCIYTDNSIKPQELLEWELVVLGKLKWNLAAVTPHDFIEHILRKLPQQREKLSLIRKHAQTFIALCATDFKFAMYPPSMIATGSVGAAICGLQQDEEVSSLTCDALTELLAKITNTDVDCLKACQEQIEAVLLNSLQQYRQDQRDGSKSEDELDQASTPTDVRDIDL
- Measurement Description: Inhibition of CDK6/Cyclin D2 (unknown origin)
pIC50: −log10 of the molar value.

{"columns": ["Item Smiles", "pIC50"],
 "data": [
  ["NC1=NC(=O)/C(=C2\\CCNC(=O)c3[nH]c(Br)cc32)N1", 6.15]
]}

---

- Tested on: HepG2
- Measurement Description: Cytotoxicity against human HepG2 cells by MTT assay
- Assay type: functional, cell-based
pIC50: −log10 of the molar value.
Endpoint Name: pIC50

{"columns": ["Item Smiles", "Observed Value"],
 "data": [
  ["O=C1NCCc2ccccc2-c2c1[nH]c1ccccc21", 6.34]
]}

---

- Measurement Description: Inhibition of cGMP-dependent protein kinase (unknown origin)
- Parameters: species or system Homo sapiens
Endpoint Name: IC50

{"columns": ["Item Smiles", "Observed Value"],
 "data": [
  ["O=C1Cc2c([nH]c3ccc(Br)cc23)-c2ccccc2N1", "> 1000 µM"],
  ["NC1=NC(=O)/C(=C2\\CCNC(=O)c3[nH]c(Br)cc32)N1", "1.7 µM"],
  ["O=C1Cc2c([nH]c3ccc([N+](=O)[O-])cc23)-c2ccccc2N1", "> 100 µM"]
]}

---

- Target System: DNA topoisomerase 2-alpha (Homo sapiens)
- Sequence (P11388 whole entry): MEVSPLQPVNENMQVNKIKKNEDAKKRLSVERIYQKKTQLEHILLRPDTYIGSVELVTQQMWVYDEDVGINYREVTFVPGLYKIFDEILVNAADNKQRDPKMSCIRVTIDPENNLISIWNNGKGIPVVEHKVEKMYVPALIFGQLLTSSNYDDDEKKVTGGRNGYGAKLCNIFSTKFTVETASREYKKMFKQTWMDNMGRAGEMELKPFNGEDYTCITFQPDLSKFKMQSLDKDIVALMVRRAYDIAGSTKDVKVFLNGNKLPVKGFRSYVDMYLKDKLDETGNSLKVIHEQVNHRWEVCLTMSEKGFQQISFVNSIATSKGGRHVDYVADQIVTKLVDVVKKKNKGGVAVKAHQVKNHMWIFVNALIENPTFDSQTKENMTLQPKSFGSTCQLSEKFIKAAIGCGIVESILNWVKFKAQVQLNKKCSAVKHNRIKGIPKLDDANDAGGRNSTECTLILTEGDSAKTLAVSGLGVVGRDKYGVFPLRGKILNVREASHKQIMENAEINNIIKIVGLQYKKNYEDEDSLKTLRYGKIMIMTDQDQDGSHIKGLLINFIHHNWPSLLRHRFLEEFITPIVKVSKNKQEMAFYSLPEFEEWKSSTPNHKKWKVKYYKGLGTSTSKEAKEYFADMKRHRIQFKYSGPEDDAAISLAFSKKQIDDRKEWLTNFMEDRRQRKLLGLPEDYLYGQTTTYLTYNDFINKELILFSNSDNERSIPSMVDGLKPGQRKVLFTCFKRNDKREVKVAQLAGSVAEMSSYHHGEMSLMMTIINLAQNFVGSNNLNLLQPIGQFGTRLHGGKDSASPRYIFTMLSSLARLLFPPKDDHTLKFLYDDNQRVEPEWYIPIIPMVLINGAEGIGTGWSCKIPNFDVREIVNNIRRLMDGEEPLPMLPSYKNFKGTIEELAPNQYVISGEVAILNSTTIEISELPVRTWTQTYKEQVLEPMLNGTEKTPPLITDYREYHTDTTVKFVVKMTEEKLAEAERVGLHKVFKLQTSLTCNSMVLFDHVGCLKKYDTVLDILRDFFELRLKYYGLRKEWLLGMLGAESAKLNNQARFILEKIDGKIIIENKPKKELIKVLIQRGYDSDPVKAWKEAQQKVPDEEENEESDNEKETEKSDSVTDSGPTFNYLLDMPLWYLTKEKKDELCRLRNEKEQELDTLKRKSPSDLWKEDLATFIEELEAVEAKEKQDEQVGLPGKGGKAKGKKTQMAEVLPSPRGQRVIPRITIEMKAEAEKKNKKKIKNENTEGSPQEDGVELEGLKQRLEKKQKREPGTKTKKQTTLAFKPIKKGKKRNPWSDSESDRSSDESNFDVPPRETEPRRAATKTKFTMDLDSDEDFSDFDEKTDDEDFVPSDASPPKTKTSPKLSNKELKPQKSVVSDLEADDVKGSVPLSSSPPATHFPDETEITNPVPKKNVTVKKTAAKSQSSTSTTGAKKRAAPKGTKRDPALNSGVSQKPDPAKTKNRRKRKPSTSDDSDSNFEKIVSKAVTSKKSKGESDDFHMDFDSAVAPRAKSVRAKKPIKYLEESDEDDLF
pIC50: −log10 of the molar value.

{"columns": ["Item Smiles", "Target System", "pIC50"],
 "data": [
  ["NC1=NC(=O)/C(=C2\\CCNC(=O)c3[nH]c(Br)cc32)N1", "DNA topoisomerase 2-alpha (Homo sapiens)", 5.00]
]}

---

- Target System: DNA topoisomerase 1 (Homo sapiens)
- Sequence (P11387 whole entry): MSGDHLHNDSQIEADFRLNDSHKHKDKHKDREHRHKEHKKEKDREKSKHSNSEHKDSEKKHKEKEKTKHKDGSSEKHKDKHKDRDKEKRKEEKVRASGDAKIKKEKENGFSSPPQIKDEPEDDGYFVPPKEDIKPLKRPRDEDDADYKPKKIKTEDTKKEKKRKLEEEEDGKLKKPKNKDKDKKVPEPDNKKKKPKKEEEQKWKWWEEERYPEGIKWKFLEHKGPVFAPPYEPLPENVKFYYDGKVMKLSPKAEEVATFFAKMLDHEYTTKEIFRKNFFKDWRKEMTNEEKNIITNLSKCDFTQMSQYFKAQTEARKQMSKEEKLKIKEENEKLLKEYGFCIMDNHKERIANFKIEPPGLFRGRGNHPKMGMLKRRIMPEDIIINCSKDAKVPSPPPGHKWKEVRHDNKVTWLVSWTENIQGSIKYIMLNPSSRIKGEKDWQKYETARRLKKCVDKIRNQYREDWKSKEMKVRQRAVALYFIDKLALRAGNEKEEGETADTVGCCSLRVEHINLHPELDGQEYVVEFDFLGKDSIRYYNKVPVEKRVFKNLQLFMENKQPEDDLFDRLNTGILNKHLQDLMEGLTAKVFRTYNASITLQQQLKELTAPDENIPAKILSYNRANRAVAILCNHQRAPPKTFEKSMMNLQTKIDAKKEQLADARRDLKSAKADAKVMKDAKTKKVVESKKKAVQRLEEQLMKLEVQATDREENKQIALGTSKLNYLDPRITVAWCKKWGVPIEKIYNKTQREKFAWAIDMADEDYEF
Endpoint Name: IC50 (µM)

{"columns": ["Molecule", "Observed Value"],
 "data": [
  ["NC1=NC(=O)/C(=C2\\CCNC(=O)c3[nH]c(Br)cc32)N1 [HYMENIALDISINE]", 10]
]}

---

- Species on record: Bos taurus
- Measurement Description: Inhibition of Interleukin-1- stimulated iNOS gene expression in bovine articular cartilage
- Assay type: functional
- Condition Details: Cartilage tissue

{"columns": ["Item Smiles", "IC50"],
 "data": [
  ["NC1=NC(=O)/C(=C2\\CCNC(=O)c3[nH]c(Br)cc32)N1", "800 nM"]
]}

---

- Target System: Cyclin-dependent kinase 2/cyclin A (Homo sapiens, UniProt P24941)
- Measurement Description: Inhibition of CDK2/Cyclin A (unknown origin)
The entries below are paired with their reported IC50.

{"columns": ["Item Smiles", "IC50"],
 "data": [
  ["N#Cc1ccc2[nH]c3c(c2c1)CC(=O)Nc1cccnc1-3", "0.5 µM"],
  ["O=C1Cc2c([nH]c3cc[n+](Cc4ccccc4)cc23)-c2ccccc2N1.[Br-]", "6.2 µM"],
  ["O=C1Cc2c([nH]c3cc[n+]([O-])cc23)-c2ccccc2N1", "> 10 µM"]
]}

---

- Target System: Cyclin-dependent kinase 1/cyclin B (Homo sapiens)
- Measurement Description: Inhibition of CDK1/Cyclin B (unknown origin) in presence of gamma32P-ATP by scintillation counter analysis
pIC50: −log10 of the molar value.
The entries below are paired with their reported pIC50.
Endpoint Name: pIC50

{"columns": ["Item Smiles", "Target System", "Modifier Sign", "Observed Value"],
 "data": [
  ["O=C1Cc2c([nH]c3ccncc23)-c2ccccc2N1", "Cyclin-dependent kinase 1/cyclin B (Homo sapiens)", "=", 5.68],
  ["NC1=NC(=O)/C(=C2\\CCNC(=O)c3[nH]c4ccc(F)cc4c32)N1", "Cyclin-dependent kinase 1/cyclin B (Homo sapiens)", "=", 6.26],
  ["NC1=NC(=O)/C(=C2\\CCNC(=O)c3[nH]c4ccccc4c32)N1", "Cyclin-dependent kinase 1/cyclin B (Homo sapiens)", "=", 6.10],
  ["NC1=NC(=O)/C(=C2\\CCNC(=O)c3[nH]c(Br)c(Br)c32)N1", "Cyclin-dependent kinase 1/cyclin B (Homo sapiens)", "=", 6.28],
  ["NC1=N/C(=C2/CCNC(=O)c3[nH]ccc32)C(=O)N1", "Cyclin-dependent kinase 1/cyclin B (Homo sapiens)", "=", 6.60],
  ["NC1=NC(=O)/C(=C2\\CCNC(=O)c3[nH]cc(Br)c32)N1", "Cyclin-dependent kinase 1/cyclin B (Homo sapiens)", "=", 5.82],
  ["CCNC1=NC(=O)/C(=C2\\CCNC(=O)c3[nH]c(Br)c(Br)c32)N1", "Cyclin-dependent kinase 1/cyclin B (Homo sapiens)", "<", 5.00],
  ["O=C1Cc2c([nH]c3cc[n+]([O-])cc23)-c2ccccc2N1", "Cyclin-dependent kinase 1/cyclin B (Homo sapiens)", "<", 5.00],
  ["NC1=NC(=O)/C(=C2\\CCNC(=O)c3[nH]c4ccc(Br)cc4c32)N1", "Cyclin-dependent kinase 1/cyclin B (Homo sapiens)", "=", 6.00],
  ["NC1=NC(=O)/C(=C2\\CCNC(=O)c3[nH]c(Cl)c(Cl)c32)N1", "Cyclin-dependent kinase 1/cyclin B (Homo sapiens)", "=", 6.66]
]}

Hello, the source for this data is ChEMBL document CHEMBL5226304, in case you need it.
